The measured values listed here are drawn from ChEMBL document CHEMBL4513216.

I'd appreciate it if you could supply cytotoxicity at 10 µM values for the items below.
- protocol_summary: Toxicity liver stage against HepG2, at 10uM
- Type: cell-based
- Parameters: test concentration 10 uM, cell line HepG2-A16-CD81EGFP
- condition_summary: human, HepG2-A16-CD81EGFP cells; read-out: INHIBITION
One number for each entry, in %.

// worked examples, cytotoxicity at 10 µM included
{"molecule": "CCc1cc2c(N3CCCC(c4cc(C(N)=O)[nH]n4)C3)ncnc2s1 (stereo unspecified)", "measured": 3.25}
{"molecule": "O=C(c1cc2c([nH]c1=O)CCC2)N1CCCC1c1ccc(F)cc1 (stereo unspecified)", "measured": -6.14}
{"molecule": "CN(c1nccc(-c2cnc3sccn3c2=O)n1)C1CCCCC1", "measured": -8.44}
{"molecule": "Cc1ncncc1C(=O)N1CCCN(Cc2cnn(C(C)C)c2)CC1", "measured": 0.814}
{"molecule": "CN(C)C(=O)CN1CCCC(c2cncc(-c3cccc(Cl)c3)n2)C1 (stereo unspecified)", "measured": 24}

Here's the next entry for you.
**Query** Please report cytotoxicity at 10 µM for the following molecule: `Cc1nc(C2(NCc3cc(C#N)ccc3F)CCCCC2)no1`
**Result** 9.68
